experiment: NCI Yeast Anticancer Drug Screen. Data for the bub3 strain (AID 167); settings: S. cerevisiae bub3 mutant strain, at 50.0 µM (retest, dose inferred, filed as 5.0)
This is part of a sample that, as a whole, favours compounds with a hit. Of some 79,000 tested, about 15% had one in any assay. Calls of active or inactive are those of the source. Rule as the data show it: active = growth inhibition above about 70%; inactive = the rest.
Reply using exactly one outcome from true (1) (active), false (0) (inactive)

Below are worked cases with known answers.
- compound: "Cc1c2cc(Cl)ccc2cc2c1ccc1ccccc12"
  label value: "false (0)"
- compound: "COC(=O)c1ccccc1N=NN(C)CC1OC2OC(C)(C)OC2C1OC (configuration not stated)"
  label value: "false (0)"
- compound: "CCC1CCC(CC)C1=O (configuration not stated)"
  label value: "false (0)"
- compound: "Cc1cc(N/N=C/c2cccc3ccccc23)c2cc3c(cc2n1)OCO3"
  label value: "true (1)"
- compound: "OC1(C2c3ccccc3-c3ccccc32)c2ccccc2-c2ccccc21"
  label value: "true (1)"
- compound: "C[n+]1c(-c2ccc(/C=N/NC(=O)C(=O)N/N=C/c3ccc(-c4cn5ccccc5[n+]4C)cc3)cc2)cn2ccccc21"
  label value: "true (1)"

Recorded call for CC1CC[N-]CC1.CC1CC[N-]CC1.CC1CC[N-]CC1.CC1CC[N-]CC1.CS(C)=O.CS(C)=O.[Cl-].[Cl-].[Cl-].[Cl-].[Pt+4].[Rh+3] ?
true (1)

====

test: NCI Yeast Anticancer Drug Screen. Data for the sgs1 mgt1 strain (AID 161);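 also: 0% = growth of cultures given vehicle only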; details: S. cerevisiae sgs1 mgt1 strain, at 50.0 µM, stronger effect = higher value
About 79,000 compounds went through this panel and 15% of them were active in at least one assay; those are over-represented in the sample as a whole. Activity calls are given as the source filed them. Cut-off read from the data, not from the text of the source: active = growth inhibition above about 70%; inactive = the rest.
Entries and their growth inhibition

Sample records with growth inhibition:
- compound: "O=C(O)c1ccc2c(c1)CC1(C2)Cc2cc3c(cc2C1=O)CCC3 (centres undefined)"
  growth inhibition: "79.5% (active)"
- compound: "O=S(=O)(O)N=Nc1ccc(O)cc1"
  growth inhibition: "93.2% (active)"
- compound: "CCOC(=O)CNC(=O)Sc1ccc(C(C)(C)C)cc1C"
  growth inhibition: "82% (active)"
- compound: "COC(=O)c1cc(C)c2sc3ccccc3c2c1C"
  growth inhibition: "75.2% (active)"
- compound: "O=C1/C(=C/O)CCc2c1ccc1ccccc21"
  growth inhibition: "99.1% (active)"

Item O=S(=O)(O)c1ccc(O)c2cc(Nc3ccccc3)ccc12 : provide growth inhibition
26.2% (inactive)

For CN(C)CC1Cc2ccsc2C1=O (centres undefined) , write its growth inhibition.
99.4% (active)

Please report the measured growth inhibition for CNC(=O)N/N=C/c1ccc([N+](=O)[O-])o1
70.3% (active)

Query growth inhibition for CSC(SC)(C(=O)O)c1cc(-c2c(Cl)cccc2Cl)no1
95.5% (active)

Give growth inhibition for the following compound: CN(C)c1cc2nc3ccccc3nc2cc1O
34.6% (inactive)

====

experiment: NCI Yeast Anticancer Drug Screen. Data for the rad50 strain (AID 155);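 also: 0% = growth of vehicle-only cultures of the same strain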; settings: S. cerevisiae rad50 strain growth inhibition; at 5.0 µM (retest, dose inferred, filed as 0.5); stronger effect = higher value
Compounds without any hit were thinned out: in the full panel of roughly 79,000, 15% have a hit.
Quick reference for growth inhibition among some molecules
Provide the reading as a plain figure in %.

Some entries whose results are on file:
- molecule: "O=C(O)c1ccc2c(c1)CC1(C2)Cc2cc3c(cc2C1=O)CCC3 (centres undefined)"
  growth inhibition (%): 34
- molecule: "CN(C)c1ccc(C2ON=C(c3ccccc3)N2C23CC4CC(CC(C4)C2)C3)cc1 (centres undefined)"
  growth inhibition (%): 0
- molecule: "Cc1ccnc2c1ccc1c(C)ccnc12"
  growth inhibition (%): 10

Given COC1(OC)OC2=C(OC1(OC)OC)c1ccccc1C2=O , respond with its growth inhibition.
8

Fill in growth inhibition for record COc1ccc(Cc2ccc(N)cc2)cc1
-149

Entry O=C(O)C(c1ccc(Cl)cc1)c1ccc(Cl)cc1 needs its growth inhibition filled in; supply it.
10

Give a short answer stating reported growth inhibition for COC(OC)(c1ccccc1)C(I)I .
100

Specify growth inhibition for O=C(CC1(O)C(=O)Nc2c(Cl)cc(Cl)cc21)c1ccc(Cl)cc1 (centres undefined) and stop.
0

Give growth inhibition for the following molecule: CCOC(=O)/C(Cl)=C(\OCC)C(=O)OCC
14
